Measured pIC50, listed per entry.
# Tested on: HCC827 (K-Ras wild type cell line)
# assay_overview: Viability assay (CellTiterBlue, 72 hr) HCC827
# Format: cell-based
# details: Homo sapiens, GI50, CellTiterBlue, HCC827 K-Ras wild-type
pIC50: −log10 of the molar value.

Asked: Record lookup: for HCC827 (K-Ras wild type cell line), what pIC50 belongs to COc1cc(CN2C(=O)CCc3cc(-c4csc(NC(=O)c5oc(C)nc5C)n4)ccc32)cc(OC)c1 [Compound 77] ?
Given back: < 4.60

Asked: Record lookup: for HCC827 (K-Ras wild type cell line), what pIC50 belongs to CCCn1nc(C)c(C(=O)Nc2nc(-c3ccc4c(c3)CCC(=O)N4)cs2)c1C [Compound 55] ?
Given back: < 4.60

Asked: Record lookup: for HCC827 (K-Ras wild type cell line), what pIC50 belongs to CCc1nc(C)c(C(=O)Nc2nc(-c3ccc4c(c3)CCC(=O)N4Cc3cccnc3)cs2)s1 [Compound 106] ?
Given back: < 4.60

Asked: Record lookup: for HCC827 (K-Ras wild type cell line), what pIC50 belongs to CCn1cc(C(=O)Nc2nc(-c3ccc4c(c3)CCC(=O)N4)cs2)cn1 [Compound 34] ?
Given back: < 4.60

Asked: Record lookup: for HCC827 (K-Ras wild type cell line), what pIC50 belongs to CCn1nccc1C(=O)Nc1nc(-c2ccc3c(c2)CCC(=O)N3)cs1 [Compound 46] ?
Given back: < 4.60

Asked: Record lookup: for HCC827 (K-Ras wild type cell line), what pIC50 belongs to Cn1nc(C(F)(F)F)cc1C(=O)Nc1nc(-c2ccc3c(c2)CCC(=O)N3)cs1 [Compound 50] ?
Given back: < 4.60

###

# Tested on: phospho-Akt in Panc10.05 (G12D)
# assay_overview: In-Cell Western phospho-Akt, Panc10.05
# Type: cell-based
# details: Homo sapiens, Panc1005, 1 h; Panc10.05, one hour treatment; read-out: In-Cell Western Panc10.05 (G12D) Akt (P)
pEC50: −log10 of the molar value.
experimental_endpoint: pEC50

Asked: Please give the measured pEC50 for this compound: Cn1nc(C(F)(F)F)cc1C(=O)Nc1nc(-c2ccc3c(c2)CCC(=O)N3)cs1 [Compound 50]
Given back: < 4.60

Asked: Please give the measured pEC50 for this compound: Cc1nc(C)c(C(=O)Nc2nc(-c3ccc4c(c3)CCC(=O)N4Cc3cccnc3C#N)cs2)o1 [Compound 94]
Given back: < 4.60

Asked: Please give the measured pEC50 for this compound: Cc1nc(C2CCN(C)CC2)sc1C(=O)Nc1nc(-c2ccc3c(c2)CCC(=O)N3)cs1 [Compound 16]
Given back: < 4.60

###

Measured IC50, listed per entry.
# tested_target: K-Ras G12D (Homo sapiens, UniProt P01116, G12D)
# Construct: expressed in transfected cells; host or cells: 293H cells
# Sequence (P01116 whole entry G12D): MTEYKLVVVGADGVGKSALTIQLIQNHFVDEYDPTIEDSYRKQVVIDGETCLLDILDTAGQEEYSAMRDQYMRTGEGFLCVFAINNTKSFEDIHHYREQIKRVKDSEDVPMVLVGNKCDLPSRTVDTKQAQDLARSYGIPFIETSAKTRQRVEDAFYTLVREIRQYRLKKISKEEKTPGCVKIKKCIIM
# assay_overview: G-LISA Ras activation, 293H cells transfected with G12D mutant
# Format: cell-based
# details: compound 1 hour

Sample records with IC50:
[[record]]
smiles_structure = "CCc1nn(C)cc1C(=O)Nc1nc(-c2ccc3c(c2)CCC(=O)N3)cs1"
result = "> 25 µM"

[[record]]
smiles_structure = "Cn1ncc(C(=O)Nc2nc(-c3ccc4c(c3)CCC(=O)N4)cs2)c1C1CC1"
result = "> 25 µM"


Asked: Please give the measured IC50 for this compound: `Cc1nc(C)c(C(=O)Nc2nc(-c3ccc4c(c3)CCC(=O)N4Cc3cccc4cnccc34)cs2)o1`
Given back: > 25 µM
